- assay_target: UniProtKB O43614
- Sequence (O43614 whole entry): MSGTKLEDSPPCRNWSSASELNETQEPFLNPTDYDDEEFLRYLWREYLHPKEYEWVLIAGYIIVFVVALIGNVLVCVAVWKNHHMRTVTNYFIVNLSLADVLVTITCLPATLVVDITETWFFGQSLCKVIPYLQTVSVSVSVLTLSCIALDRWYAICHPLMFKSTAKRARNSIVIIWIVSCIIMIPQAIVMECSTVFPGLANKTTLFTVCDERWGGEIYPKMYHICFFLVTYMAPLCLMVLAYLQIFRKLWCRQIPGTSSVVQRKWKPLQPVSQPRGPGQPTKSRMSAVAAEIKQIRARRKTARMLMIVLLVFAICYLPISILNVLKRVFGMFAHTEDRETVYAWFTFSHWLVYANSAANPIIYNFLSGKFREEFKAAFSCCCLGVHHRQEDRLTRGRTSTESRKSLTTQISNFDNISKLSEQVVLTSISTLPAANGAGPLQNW
- assay_summary: Orexin antagonist activity, intracellular calcium FLIPR assay (orexin receptor 2)
- study_conditions: RBL-2H3 cells stably expressing human orexin receptor 2; Ca2+ dye FLIPR; compound 15 minutes before orexin-A at approximately 80% maximal response; read-out: Human Orexin2R IC50
Can you tell me pIC50 for the items I'm about to list?
Numbers only, as −log10 of the molar value.

# annotated cases, reported pIC50 shown
compound: COc1cccc(OC)c1C(=O)N[C@H]1CCC[C@H]1Nc1nc2ccc(Cl)cc2s1
numeric_readout: 6.80

compound: COc1cccc(OC)c1C(=O)N[C@H]1CCC[C@@H]1N(C)c1nc2ccc(F)cc2s1
numeric_readout: 5.68

compound: O=C(N[C@H]1CCC[C@@H]1Nc1nc2ccc(F)cc2s1)c1ccccc1F
numeric_readout: 5.43

Give me pIC50 for each of these compounds, listed below.
1. O=C(N[C@H]1CCC[C@@H]1Nc1nc2ccc(F)cc2s1)c1c(Cl)cccc1-n1nccn1
2. O=C(NC1CC(F)(F)CC1Nc1nc2ccc(Cl)cc2s1)c1ccccc1-n1nccn1 (single isomer, unassigned) [Example 105]

Given back:
5.38
5.45

Asked: Supply recorded pIC50 for O=C(NC1CC(F)(F)CC1Nc1nc2ccc(F)cc2s1)c1ccccc1-n1nccn1 (single isomer, unassigned) [Example 104] here.
Given back: 5.35
